Can you tell me viability, T/C for the items I'm about to list?
# Test system: 616215-338-R-J1-PDC complex spheroid viability;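 also: spheroids exposed to agents for seven days before viability readout; 100% = DMSO vehicle control viability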
# ASSAY COMMENT: Anticancer human tumor 616215-338-R-J1-PDC patient-derived colon adenocarcinoma cell line growth inhibition [RAS]
# ASSAY CONTEXT: second compound 0.03 µM; first compound 0.0316 µM; stronger effect = lower value
Answer in %, number only, no unit symbol.

Q: Please look up its viability, T/C: NC1c2ccccc2OC12CCN(c1cnc3c(N4CCCc5ncccc54)n[nH]c3n1)CC2 (centres undefined) + CCn1c(-c2cc(N3CCN(C)CC3)cnc2C(C)OC)c2c3cc(ccc31)-c1csc(n1)CC(NC(=O)C1CC1C)C(=O)N1CCCC(N1)C(=O)OCC(C)(C)C2
Result: 38.7

Q: Please look up its viability, T/C: CC(C)NCC(C(=O)N1CCN(c2ncnc3c2C(C)CC3O)CC1)c1ccc(Cl)cc1 (centres undefined) + CCn1c(-c2cccnc2C(C)OC)c2c3cc(ccc31)N1CCOC(CC(NC(=O)C(C(C)C)N(C)C(=O)C3(F)CCN(C(=O)C#CC(C)(C)N(C)C)CC3)C(=O)N3CCCC(N3)C(=O)OCC(C)(C)C2)C1
Result: 99.7

Q: Please look up its viability, T/C: CC1(O)CCCC1n1c(=O)c(C(F)F)cc2cnc(NC3CCN(S(C)(=O)=O)CC3)nc21 (centres undefined) + CCn1c(-c2cc(N3CCN(C)CC3)cnc2C(C)OC)c2c3cc(ccc31)-c1csc(n1)CC(NC(=O)C1CC1C)C(=O)N1CCCC(N1)C(=O)OCC(C)(C)C2
Result: 47.4

Q: Please look up its viability, T/C: CCC(CC)c1cc(NC2CCC(N)C2)n2nccc2n1 (centres undefined) + CCn1c(-c2cc(N3CCN(C)CC3)cnc2C(C)OC)c2c3cc(ccc31)-c1csc(n1)CC(NC(=O)C1CC1C)C(=O)N1CCCC(N1)C(=O)OCC(C)(C)C2
Result: 50.2

Ref: PubChem BioAssay AID2060898
